# Assay Overview: excess molar enthalpy (molar enthalpy of mixing); xn = mol fraction of the nth substance listed
# Condition Parameters: 298.15 K; 101 kPa; Liquid; Flow calorimetry; x2 = 0.95
Metric: excess molar enthalpy (kcal/mol)

| Compound | Observed Measurement |
| --- | --- |
| CCC(C)(C)C [2,2-dimethylbutane] + CCCCOCCCC | 0.00528 |
| CCC(C)(C)C [2,2-dimethylbutane] + CCCOCCC | 0.00676 |
| CC(C)C(C)C [2,3-dimethylbutane] + CCCCOCCCC | 0.00672 |
| CC(C)C(C)C [2,3-dimethylbutane] + CCCOCCC | 0.0075 |

###

# Assay Overview: excess molar enthalpy (molar enthalpy of mixing); xn = mol fraction of the nth substance listed
# Condition Parameters: 298.15 K; 101 kPa; Liquid; Flow calorimetry; x2 = 0.1
Each entry below lists one item and its recorded excess molar enthalpy value.

| Compound | excess molar enthalpy, kcal/mol |
| --- | --- |
| CCC(C)(C)C [2,2-dimethylbutane] + CCCOCCC | 0.0163 |
| CC(C)C(C)C [2,3-dimethylbutane] + CCCCOCCCC | 0.0104 |
| CCC(C)(C)C [2,2-dimethylbutane] + CCCCOCCCC | 0.0112 |
| CC(C)C(C)C [2,3-dimethylbutane] + CCCOCCC | 0.0152 |

###

# Assay Overview: excess molar enthalpy (molar enthalpy of mixing); xn = mol fraction of the nth substance listed
# Condition Parameters: 298.15 K; 101 kPa; Liquid; Flow calorimetry; x2 = 0.05
Reported values of excess molar enthalpy for individual entries

| Molecule | excess molar enthalpy / kcal/mol |
| --- | --- |
| CCC(C)(C)C [2,2-dimethylbutane] + CCCCOCCCC | 0.0065 |
| CC(C)C(C)C [2,3-dimethylbutane] + CCCCOCCCC | 0.00607 |
| CC(C)C(C)C [2,3-dimethylbutane] + CCCOCCC | 0.00846 |
| CCC(C)(C)C [2,2-dimethylbutane] + CCCOCCC | 0.00906 |
